This collection of values is drawn from patent US9067937B2.

Tested on: A549 cells
Assay: Cell-based assay, anti-proliferative activity (Cell Counting Kit-8, 72 hours)
Parameters: species or system human
Details: Homo sapiens, A549, read-out: IC50, in vitro anti-proliferative assay
Structures can show the parent of a compound that is named as a salt.
MEASURED_QUANTITY: IC50

COMPOUND: CC(=O)c1cnc2ccc(-c3cc(Cl)c(O)c(Cl)c3)nc2c1N[C@H]1CC[C@H](CN(C)C)CC1 [Example 6, dihydrochloride]
REPORTED: 6.7 nM

* * *

Measured log10 of IC50 values are reported for all entries that follow.
System: HT1197 cells
Assay: Cell-based assay, anti-proliferative activity, MELK-negative control (Cell Counting Kit-8, 72 hours)
Set-up: species or system human
Conditions: Homo sapiens, HT1197, 72 h, read-out: IC50 (μM) (HTll97)
Where a name gives a salt, the structure may show the parent alone.
MEASURED_QUANTITY: log10 of IC50 (log10 of the value in µM)

COMPOUND: CC(=O)c1cnc2ccc(-c3cc(F)c(O)c(Cl)c3)nc2c1Nc1cccc(CCN2CCCC2)c1 [Example 20, dihydrochloride]
log10 of IC50: 0.68
--
COMPOUND: COc1cc(-c2ccc3ncc(S(C)(=O)=O)c(N[C@H]4CC[C@H](CN(C)C)CC4)c3n2)cc(Cl)c1O
log10 of IC50: -0.85
--
COMPOUND: CN(C)[C@H]1CC[C@H](Nc2c(S(C)(=O)=O)cnc3ccc(-c4cc(Cl)c(O)c(Cl)c4)nc23)CC1 [Example 15, dihydrochloride]
log10 of IC50: 0.34
--
COMPOUND: CC(=O)c1cnc2ccc(-c3cc(F)c(O)c(Cl)c3)nc2c1NC[C@H]1CC[C@H](N(C)C)CC1 [Example 90, dihydrochloride]
log10 of IC50: 1.00
--
COMPOUND: CC(=O)c1cnc2ccc(-c3cc(Cl)c(O)c(Cl)c3)nc2c1N[C@H]1CC[C@H](CN2CCN(C)CC2)CC1 [Example 63, trihydrochloride]
log10 of IC50: -0.89
--
COMPOUND: CN(C)C[C@H]1CC[C@H](Nc2c(S(C)(=O)=O)cnc3ccc(-c4cc(F)c(O)c(Cl)c4)nc23)CC1 [Example 13, dihydrochloride]
log10 of IC50: -0.49
